Experiment: Inhibition of H+/K+-ATPase in porcine stomach gastric mucosal microsomes assessed as reduction in inorganic phosphate production using ATP as substrate preincubated for 30 mins followed by ATP addition in presence of KCl at pH 6.5 by malachite green reagent based colorimetric assay
Set-up: species or system Sus scrofa
pIC50: −log10 of the molar value.
Measured pIC50 values are reported for all entries that follow.

chemical_smiles | pIC50
CNCc1cn(S(=O)(=O)c2cncc(F)c2)c(-c2cccnc2F)c1F | 6.70
CNCc1cn(S(=O)(=O)c2cc(OC)ccn2)c(-c2cccnc2F)c1F | 6.85
CNCc1cn(S(=O)(=O)c2cccnc2C)c(-c2cccnc2F)c1F | 6.68
CNCc1cn(S(=O)(=O)c2ccoc2)c(-c2cccnc2F)c1F | 7.22
CNCc1cn(S(=O)(=O)c2ccc(OC)cn2)c(-c2cccnc2F)c1F | 6.55
CNCc1cc(-c2cccnc2F)n(S(=O)(=O)c2cccnc2)c1 | 6.68
CNCc1cn(S(=O)(=O)c2cccnc2)c(-c2cccnc2F)c1F | 7.31
CNCc1cn(S(=O)(=O)c2cccnc2Cl)c(-c2cccnc2F)c1F | 6.41
CNCc1cc(-c2cccnc2F)n(S(=O)(=O)c2ccsc2)c1 | 7.49
CNCc1cn(S(=O)(=O)c2cccc(C)n2)c(-c2cccnc2F)c1F | 6.68
CNCc1cc(-c2cccnc2F)n(S(=O)(=O)c2ccccn2)c1 | 6.92

---

Assay: Drug uptake in Sprague-Dawley rat stomach at 0.2 mg/kg, iv administered as cassette dose after 4 hrs by LC-MS/MS analysis
Assay type: ADME, organism-based
Conditions: read-out: Drug uptake
measured_parameter: concentration at 4 h (ng/g)

chemical_smiles | measured_parameter | value_units | result_number
CNCc1cn(S(=O)(=O)c2ccoc2)c(-c2cccnc2F)c1F | concentration at 4 h | ng/g | 194
CNCc1cc(-c2cccnc2F)n(S(=O)(=O)c2ccsc2)c1 | concentration at 4 h | ng/g | 640
CNCc1cn(S(=O)(=O)c2ccc(C)nc2)c(-c2cccnc2F)c1F | concentration at 4 h | ng/g | 1180
CNCc1cn(S(=O)(=O)c2cnccc2C)c(-c2cccnc2F)c1F | concentration at 4 h | ng/g | 251
CNCc1cn(S(=O)(=O)c2cccnc2)c(-c2cccnc2F)c1F | concentration at 4 h | ng/g | 629
CNCc1cc(-c2cccnc2F)n(S(=O)(=O)c2cccs2)c1 | concentration at 4 h | ng/g | 210
CNCc1cn(S(=O)(=O)c2cncc(F)c2)c(-c2cccnc2F)c1F | concentration at 4 h | ng/g | 425
CNCc1cn(S(=O)(=O)c2cccs2)c(-c2cccnc2F)c1F | concentration at 4 h | ng/g | 827

---

Experiment: Inhibition of H+/K+-ATPase in porcine stomach gastric mucosal microsomes assessed as reduction in inorganic phosphate production using ATP as substrate preincubated for 30 mins followed by ATP addition in presence of KCl at pH 6.5 by malachite green reagent based colorimetric assay
Design: species or system Sus scrofa

chemical_smiles | IC50, nM
CNCc1cn(S(=O)(=O)c2ccccn2)c(-c2cccnc2F)c1F | 97
CNCc1cn(S(=O)(=O)c2cccc(F)n2)c(-c2cccnc2F)c1F | 240
CNCc1cn(S(=O)(=O)c2cc(C)ccn2)c(-c2cccnc2F)c1F | 73
CNCc1cn(S(=O)(=O)c2cccc(OC)n2)c(-c2cccnc2F)c1F | 150
CNCc1cn(S(=O)(=O)c2cccs2)c(-c2cccnc2F)c1F | 72
CNCc1cn(S(=O)(=O)c2ncccc2C)c(-c2cccnc2F)c1F | 510
CNCc1cn(S(=O)(=O)c2cncc(Cl)c2)c(-c2cccnc2F)c1F | 160
CNCc1cn(S(=O)(=O)c2ccc(F)cn2)c(-c2cccnc2F)c1F | 100
CNCc1cn(S(=O)(=O)c2cncc(C)c2)c(-c2cccnc2F)c1F | 140
CNCc1cc(-c2cccnc2F)n(S(=O)(=O)c2cccs2)c1 | 32
CNCc1cn(S(=O)(=O)c2ccc(C)nc2)c(-c2cccnc2F)c1F | 180
CNCc1cn(S(=O)(=O)c2ccco2)c(-c2cccnc2F)c1F | 79
CNCc1cn(S(=O)(=O)c2cnccc2C)c(-c2cccnc2F)c1F | 120

Recorded values, source ChEMBL document CHEMBL4020761.
